# study.target: human CB2 receptor (Homo sapiens)
# Construct: host or cells: CHO-K1
# Sequence (P34972 whole entry): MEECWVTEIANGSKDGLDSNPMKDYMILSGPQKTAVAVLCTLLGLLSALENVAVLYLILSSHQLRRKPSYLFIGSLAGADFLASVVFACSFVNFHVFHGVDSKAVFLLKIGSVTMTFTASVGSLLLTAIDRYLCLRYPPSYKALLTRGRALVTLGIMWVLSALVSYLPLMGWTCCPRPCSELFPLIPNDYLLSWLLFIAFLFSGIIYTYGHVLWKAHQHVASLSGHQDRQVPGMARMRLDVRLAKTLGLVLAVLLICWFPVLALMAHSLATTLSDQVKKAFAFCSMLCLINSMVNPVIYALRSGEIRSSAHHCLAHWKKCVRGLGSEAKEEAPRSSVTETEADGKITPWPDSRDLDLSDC
# procedure.text: CB2 radioligand competitive binding assay ([3H]CP 55,940 displacement)
# assay.context: fold difference in selectivity between CB1 and CB2 binding, in the column of the receptor with the higher binding affinity
readout.kind: Selectivity CB2
The reply should consist of the numeric value with the unit placed after it.

Notebook entry, human CB2 receptor (Homo sapiens) assay: Selectivity CB2 of "C=CCNS(=O)(=O)c1c(CCCCC)cc(O)c(C/C=C(\C)CCC=C(C)C)c1O" = ?
25.50 fold

Notebook entry, human CB2 receptor (Homo sapiens) assay: Selectivity CB2 of "CCCCCc1cc(O)c(C/C=C(\C)CCC=C(C)C)c(O)c1S(=O)(=O)NC1CCCCC1" = ?
9.04 fold

Notebook entry, human CB2 receptor (Homo sapiens) assay: Selectivity CB2 of "CCCCCc1cc(O)c(C/C=C(\C)CCC=C(C)C)c(O)c1S(=O)(=O)NC1CCC1" = ?
24.80 fold

Notebook entry, human CB2 receptor (Homo sapiens) assay: Selectivity CB2 of "CCCCCc1cc(O)c(C/C=C(\C)CCC=C(C)C)c(O)c1S(=O)(=O)Nc1ccccc1" = ?
61.50 fold
